Can you tell me viability, T/C for the items I'm about to list?
Test system: KRAS patient-derived spheroids with HUVEC/MSC, viability
method: Anticancer human tumor 519858-162-T-J1-PDC patient-derived colon adenocarcinoma cell line growth inhibition [KRAS2]
conditions-used: second compound 10 µM; first compound 3.16 µM; hits give low values
Write the number in % without appending the unit.

For the compound CC(C)NCC(C(=O)N1CCN(c2ncnc3c2C(C)CC3O)CC1)c1ccc(Cl)cc1 (configuration not stated) + CC1OCC2(CCN(c3cnc(Sc4ccnc(N)c4Cl)c(N)n3)CC2)C1N , what viability, T/C is on record?
68.9

Do the same for CC1(C)CCC(CN2CCN(c3ccc(C(=O)NS(=O)(=O)c4ccc(NCC5CCOCC5)c([N+](=O)[O-])c4)c(Oc4cnc5[nH]ccc5c4)c3)CC2)=C(c2ccc(Cl)cc2)C1 + C=CC(=O)N1CCN(c2nc(=O)n(-c3c(C)ccnc3C(C)C)c3nc(-c4c(O)cccc4F)c(F)cc23)C(C)C1 please
56.3

* * *

System: KRAS patient-derived spheroids with HUVEC/MSC, viability
method: Anticancer human tumor 519858-162-T-J1-PDC cell line growth inhibition [KRAS2];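 note: compound exposure lasted seven days before readout; 100% = DMSO vehicle control viability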
conditions-used: second compound 0.1 µM; first compound 0.1 µM; hits give low values
Can you tell me viability, T/C for the items I'm about to list?
Write the number in % without appending the unit.

For the compound Cn1ncnc1[C@H]1c2n[nH]c(=O)c3cc(F)cc(c23)N[C@@H]1c1ccc(F)cc1 + CC1OCC2(CCN(c3cnc(Sc4ccnc(N)c4Cl)c(N)n3)CC2)C1N , what viability, T/C is on record?
101

Do the same for CCNC(=O)CC1N=C(c2ccc(Cl)cc2)c2cc(OC)ccc2-n2c(C)nnc21 (stereo unspecified) + COc1cc2nc(C)nc(NC(C)c3cc(N)cc(C(F)(F)F)c3)c2cc1OC1CCOC1 please
90.9

Do the same for COc1cc(Nc2ncc3c(n2)-c2ccc(Cl)cc2C(c2c(F)cccc2OC)=NC3)ccc1C(=O)O + CC1OCC2(CCN(c3cnc(Sc4ccnc(N)c4Cl)c(N)n3)CC2)C1N please
67.9

Do the same for COc1cc(Nc2ncc3c(n2)-c2ccc(Cl)cc2C(c2c(F)cccc2OC)=NC3)ccc1C(=O)O + COc1cc2nc(C)nc(NC(C)c3cc(N)cc(C(F)(F)F)c3)c2cc1OC1CCOC1 please
72.5

Do the same for CC(C)n1nc(-c2ccc3oc(N)nc3c2)c2c(N)ncnc21 + C=CC(=O)N1CCN(c2nc(OCC3CCCN3C)nc3c2CCN(c2cccc4cccc(C)c24)C3)CC1CC#N please
39.2

Do the same for CC(C)NCC(C(=O)N1CCN(c2ncnc3c2C(C)CC3O)CC1)c1ccc(Cl)cc1 (stereo unspecified) + CC1OCC2(CCN(c3cnc(Sc4ccnc(N)c4Cl)c(N)n3)CC2)C1N please
84.9

Do the same for CCNC(=O)CC1N=C(c2ccc(Cl)cc2)c2cc(OC)ccc2-n2c(C)nnc21 (stereo unspecified) + C=CC(=O)N1CCN(c2nc(OCC3CCCN3C)nc3c2CCN(c2cccc4cccc(C)c24)C3)CC1CC#N please
93.8

Do the same for CC(C)n1nc(-c2ccc3oc(N)nc3c2)c2c(N)ncnc21 + COc1cc2nc(C)nc(NC(C)c3cc(N)cc(C(F)(F)F)c3)c2cc1OC1CCOC1 please
74.9

Do the same for CC1COCCN1c1cc(-c2ccnn2C)c2ccnc(-c3ccn[nH]3)c2n1 (stereo unspecified) + CNCc1ccccc1-c1csc(C(C)Nc2nc(C)nc3cc(OC)c(OC)cc23)c1 please
62.7

Do the same for CN(C)C/C=C/C(=O)Nc1cc2c(Nc3ccc(F)c(Cl)c3)ncnc2cc1O[C@H]1CCOC1 + C=CC(=O)N1CCN(c2nc(=O)n(-c3c(C)ccnc3C(C)C)c3nc(-c4c(O)cccc4F)c(F)cc23)C(C)C1 please
84.8

Do the same for CC(C)NCC(C(=O)N1CCN(c2ncnc3c2C(C)CC3O)CC1)c1ccc(Cl)cc1 (stereo unspecified) + C=CC(=O)N1CCN(c2nc(=O)n(-c3c(C)ccnc3C(C)C)c3nc(-c4c(O)cccc4F)c(F)cc23)C(C)C1 please
103

Do the same for CCNC(=O)CC1N=C(c2ccc(Cl)cc2)c2cc(OC)ccc2-n2c(C)nnc21 (stereo unspecified) + C=CC(=O)N1CCN(c2nc(=O)n(-c3c(C)ccnc3C(C)C)c3nc(-c4c(O)cccc4F)c(F)cc23)C(C)C1 please
97.1

Do the same for CCN1CCN(Cc2ccc(Nc3ncc(F)c(-c4cc(F)c5nc(C)n(C(C)C)c5c4)n3)nc2)CC1 + CNCc1ccccc1-c1csc(C(C)Nc2nc(C)nc3cc(OC)c(OC)cc23)c1 please
82

Do the same for COC(=O)c1ccc2c(C(=Nc3ccc(N(C)C(=O)CN4CCN(C)CC4)cc3)c3ccccc3)c(O)[nH]c2c1 + COc1cc2nc(C)nc(NC(C)c3cc(N)cc(C(F)(F)F)c3)c2cc1OC1CCOC1 please
44.7

Do the same for Cn1ncnc1[C@H]1c2n[nH]c(=O)c3cc(F)cc(c23)N[C@@H]1c1ccc(F)cc1 + C=CC(=O)N1CCN(c2nc(=O)n(-c3c(C)ccnc3C(C)C)c3nc(-c4c(O)cccc4F)c(F)cc23)C(C)C1 please
76.8

Do the same for COc1cc2nccc(Oc3ccc(NC(=O)C4(C(=O)Nc5ccc(F)cc5)CC4)cc3)c2cc1OC + C=CC(=O)N1CCN(c2nc(=O)n(-c3c(C)ccnc3C(C)C)c3nc(-c4c(O)cccc4F)c(F)cc23)C(C)C1 please
91.2

Do the same for CC(C)n1nc(-c2ccc3oc(N)nc3c2)c2c(N)ncnc21 + CNCc1ccccc1-c1csc(C(C)Nc2nc(C)nc3cc(OC)c(OC)cc23)c1 please
53.5

Do the same for O=C(c1cc(Cc2n[nH]c(=O)c3ccccc23)ccc1F)N1CCN(C(=O)C2CC2)CC1 + CNCc1ccccc1-c1csc(C(C)Nc2nc(C)nc3cc(OC)c(OC)cc23)c1 please
93.4

Do the same for CC1COCCN1c1cc(-c2ccnn2C)c2ccnc(-c3ccn[nH]3)c2n1 (stereo unspecified) + C=CC(=O)N1CCN(c2nc(=O)n(-c3c(C)ccnc3C(C)C)c3nc(-c4c(O)cccc4F)c(F)cc23)C(C)C1 please
89.3

Do the same for CC1OCC2(CCN(c3cnc(Sc4ccnc(N)c4Cl)c(N)n3)CC2)C1N (stereo unspecified) + C=CC(=O)N1CCN(c2nc(=O)n(-c3c(C)ccnc3C(C)C)c3nc(-c4c(O)cccc4F)c(F)cc23)C(C)C1 please
77.3

Do the same for COc1cc2nccc(Oc3ccc(NC(=O)C4(C(=O)Nc5ccc(F)cc5)CC4)cc3)c2cc1OC + COc1cc2nc(C)nc(NC(C)c3cc(N)cc(C(F)(F)F)c3)c2cc1OC1CCOC1 please
73.3
